Task for the reader: assign each of the following molecules its reported pIC50.
Test Name: Cytotoxic activity against human HT1080 cells assessed as inhibition of cell proliferation incubated for 72 hrs by MTT assay
Type: functional, cell-based
Test Context: HT-1080, 72 h
Answers are plain numbers, as −log10 of the molar value.

C=C(CC)C(=O)c1ccc(OCC(=O)O)c(Cl)c1Cl = 4.26

Now look at this entry.
Which measured pIC50 value corresponds to C=C(CC)C(=O)c1ccc(OCC(=O)N[C@@H]2[C@@H](O)[C@H](O)[C@@H](CO)O[C@H]2O)c(Cl)c1Cl ? 4.79
